biological target: recombinant human CD200 Fc Chimera (human) (UniProt P41217); test: SPR (Biacore 3000), CD200-Fc captured by anti-human Fc on CM5, Fab injected, 1:1 Langmuir
Examples of binders with documented koff follow.
# value in s⁻¹; strip the unit string

Some entries whose results are on file:
[[record]]
binder = "TPP-123 (Fab, V domains shown) VH: QVQLVQSGAEVKKPGASVKVSCKASGYSFTDYIILWVRQATGQGLEWMGHIDPYYGSSNYNLKFKGRVTMTRNTSISTAYMELSSLRSEDTAVYYCARSKRDYFDYWGQGTLVTVSS VL: DIQMTQSPSSLSASVGDRVTITCKASQDINSYLSWFQQKPGKAPKSLIYRANRLVDGVPSRFSGSGSGTDFTLTISSLQPEDFATYYCLQYDEFPYTFGQGTKLEIK"
unit_label = "s⁻¹"
observed = 0.00487

[[record]]
binder = "TPP-111 (Fab, V domains shown) VH: QVQLVQSGAEVKKPGASVKVSCKASGYSFTDYIILWVRQAPGQGLEWMGHIDPYYGSSNYNLKFKGRVTMTTDTSTSTAYMELRSLRSDDTAVYYCARSKRDYFDYWGQGTLVTVSS VL: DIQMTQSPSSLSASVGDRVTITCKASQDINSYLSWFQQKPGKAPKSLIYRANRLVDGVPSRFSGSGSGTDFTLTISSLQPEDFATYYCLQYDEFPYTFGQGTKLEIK"
unit_label = "s⁻¹"
observed = 0.00625


Please look at the following binder next.
The binder listed as TPP-135 (Fab, V domains shown) VH: QMQLVQSGPEVKKPGTSVKVSCKASGYSFTDYIILWVRQARGQRLEWIGHIDPYYGSSNYNLKFKGRVTITRDMSTSTAYMELSSLRSEDTAVYYCAASKRDYFDYWGQGTLVTVSS VL: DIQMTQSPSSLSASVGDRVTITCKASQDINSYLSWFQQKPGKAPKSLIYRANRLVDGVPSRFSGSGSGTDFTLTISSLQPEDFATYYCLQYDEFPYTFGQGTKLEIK has a reported koff of 0.0146
